- System: Gossypium hirsutum
- experiment: Herbicidal activity, postemergence test
- Format: in vivo
- condition: post; sprayed onto seedling plants, 800 g of active material per hectare; evaluated 2 weeks after treatment
Can you tell me GOSHI control rating (0-9) for the items I'm about to list?

Here is how some molecules turned out for GOSHI control rating (0-9).
{"chem_smiles": "C[C@H](NC(=O)c1nnc(C(C)(C)C)o1)c1ccccc1", "GOSHI control rating (0-9)": "4 (injury)"}
{"chem_smiles": "O=C(NCc1cccs1)c1nnc(-c2ccc(F)cc2)o1", "GOSHI control rating (0-9)": "0 (no effect)"}

Note: attention shifts to another entry.
`C[C@H](NC(=O)c1nnc(-c2ccccc2Cl)o1)c1ccccc1` yielded GOSHI control rating (0-9) of 8 (approaching complete kill)

###

- Tested on: Echinochloa crus-galli
- experiment: Herbicidal activity, preemergence test
- Format: in vivo
- condition: pre; sprayed onto soil, 800 g of active material per hectare; evaluated 3 weeks after treatment
readout: ECHCG control rating (0-9)

Here is how some compounds turned out for ECHCG control rating (0-9).
{"compound": "C[C@H](NC(=O)c1nnc(C(C)(C)C)o1)c1ccccc1", "readout_value": "0 (no effect)"}
{"compound": "CC(NC(=O)c1nnc(C(C)(C)C)o1)c1cccs1 (racemic)", "readout_value": "6 (herbicidal effect)"}
{"compound": "CC(NC(=O)c1nnc(-c2ccccc2)o1)c1cccs1 (racemic)", "readout_value": "0 (no effect)"}

Note: attention shifts to another entry.
`C[C@H](NC(=O)c1nnc(-c2ccccc2)o1)c1ccccc1` yielded ECHCG control rating (0-9) of 4 (injury)

###

- Test system: Chenopodium album
- experiment: Herbicidal activity, preemergence test
- Format: in vivo
- condition: pre; sprayed onto soil, 800 g of active material per hectare; evaluated 3 weeks after treatment
readout: CHEAL control rating (0-9)

Would you mind listing CHEAL control rating (0-9) for each of the following molecules?
1. C[C@H](NC(=O)c1nnc(-c2ccc(F)cc2)o1)c1ccccc1
2. C[C@H](NC(=O)c1nnc(-c2ccccc2Cl)o1)c1ccccc1
3. O=C(NCc1ccccc1)c1nnc(-c2ccc(F)cc2)o1
4. O=C(NCc1cccs1)c1nnc(-c2ccc(F)cc2)o1
5. C[C@H](NC(=O)c1nnc(C=Cc2ccccc2)o1)c1ccccc1
6. C[C@H](NC(=O)c1nnc(-c2c(F)cccc2F)o1)c1ccccc1
7. C[C@H](NC(=O)c1nnc(-c2ccc(F)cc2F)o1)c1ccccc1

output:
1: 8 (approaching complete kill); 2: 2 (slight effect); 3: 0 (no effect); 4: 5 (definite injury); 5: 0 (no effect); 6: 8 (approaching complete kill); 7: 8 (approaching complete kill)

Would you mind listing CHEAL control rating (0-9) for each of the following molecules?
1. C[C@H](NC(=O)c1nnc(-c2ccc(C(C)(C)C)cc2)o1)c1ccccc1
2. C[C@H](NC(=O)c1nnc(-c2ccc(Cl)c(Cl)c2)o1)c1ccccc1
3. C[C@H](NC(=O)c1nnc(-c2ccccc2F)o1)c1ccccc1
4. COc1ccc(-c2nnc(C(=O)N[C@@H](C)c3ccccc3)o2)cc1
5. C[C@H](NC(=O)c1nnc(-c2cc(Cl)cc(Cl)c2)o1)c1ccccc1
6. C[C@H](NC(=O)c1nnc(-c2ccc(Cl)cc2Cl)o1)c1ccccc1
7. O=C(NCc1cccs1)c1nnc(-c2ccccc2F)o1

output:
7 (good herbicidal effect)
0 (no effect)
8 (approaching complete kill)
9 (complete kill)
0 (no effect)
0 (no effect)
3 (moderate effect)

Would you mind listing CHEAL control rating (0-9) for each of the following molecules?
1. C[C@H](NC(=O)c1nnc(-c2c(Cl)cccc2Cl)o1)c1ccccc1
2. C[C@H](NC(=O)c1nnc(-c2ccc(Cl)cc2)o1)c1ccccc1
3. C[C@H](NC(=O)c1nnc(-c2ccc(C(F)(F)F)cc2)o1)c1ccccc1

output:
0 (no effect)
8 (approaching complete kill)
8 (approaching complete kill)

###

Can you tell me ALOMY control rating (0-9) for the items I'm about to list?
- Test system: Alopecurus myosuroides
- experiment: Herbicidal activity, preemergence test
- Format: in vivo
- condition: pre; sprayed onto soil, 800 g of active material per hectare; evaluated 3 weeks after treatment
- Protocol: […] Results of herbicide evaluation are expressed on a rating scale (0-9). […] Preemergence and postemergence treatments are evaluated at 3 and 2 weeks after treatment, respectively.

{"chem_smiles": "C[C@H](NC(=O)c1nnc(-c2ccc(F)cc2)o1)c1ccccc1", "measured_on": "Alopecurus myosuroides", "ALOMY control rating (0-9)": "4 (injury)"}
{"chem_smiles": "C[C@H](NC(=O)c1nnc(-c2ccc(C(F)(F)F)cc2)o1)c1ccccc1", "measured_on": "Alopecurus myosuroides", "ALOMY control rating (0-9)": "4 (injury)"}

Would you mind listing ALOMY control rating (0-9) for each of the following compounds?
1. C[C@H](NC(=O)c1nnc(-c2c(F)cccc2F)o1)c1ccccc1
2. C[C@H](NC(=O)c1nnc(-c2c(Cl)cccc2Cl)o1)c1ccccc1
3. O=C(NCc1cccs1)c1nnc(-c2ccc(F)cc2)o1

output:
1: 2 (slight effect); 2: 0 (no effect); 3: 0 (no effect)

Would you mind listing ALOMY control rating (0-9) for each of the following compounds?
1. C[C@H](NC(=O)c1nnc(-c2cc(Cl)cc(Cl)c2)o1)c1ccccc1
2. C[C@H](NC(=O)c1nnc(N(C)C)o1)c1ccccc1
3. C[C@H](NC(=O)c1nnc(C=Cc2ccccc2)o1)c1ccccc1
4. C[C@H](NC(=O)c1nnc(-c2ccc(Cl)cc2Cl)o1)c1ccccc1

output:
["0 (no effect)", "0 (no effect)", "0 (no effect)", "0 (no effect)"]

###

Can you tell me LAMPU control rating (0-9) for the items I'm about to list?
- System: Lamium purpureum
- experiment: Herbicidal activity, preemergence test
- Format: in vivo
- condition: pre; sprayed onto soil, 800 g of active material per hectare; evaluated 3 weeks after treatment

Here is how some molecules turned out for LAMPU control rating (0-9).
{"molecule": "C[C@H](NC(=O)c1nnc(-c2cc(Cl)cc(Cl)c2)o1)c1ccccc1", "LAMPU control rating (0-9)": "0 (no effect)"}
{"molecule": "C[C@H](NC(=O)c1nnc(-c2ccccc2F)o1)c1ccccc1", "LAMPU control rating (0-9)": "8 (approaching complete kill)"}
{"molecule": "CC(NC(=O)c1nnc(C(C)(C)C)o1)c1cccs1 (racemic)", "LAMPU control rating (0-9)": "2 (slight effect)"}
{"molecule": "C[C@H](NC(=O)c1nnc(-c2ccc(Cl)cc2Cl)o1)c1ccccc1", "LAMPU control rating (0-9)": "0 (no effect)"}
{"molecule": "C[C@H](NC(=O)c1nnc(N(C)C)o1)c1ccccc1", "LAMPU control rating (0-9)": "0 (no effect)"}
{"molecule": "C[C@H](NC(=O)c1nnc(-c2ccc(Cl)cc2)o1)c1ccccc1", "LAMPU control rating (0-9)": "8 (approaching complete kill)"}
{"molecule": "C[C@H](NC(=O)c1nnc(C=Cc2ccccc2)o1)c1ccccc1", "LAMPU control rating (0-9)": "0 (no effect)"}

Note: attention shifts to another entry.
`C[C@H](NC(=O)c1nnc(-c2c(F)cccc2F)o1)c1ccccc1` yielded LAMPU control rating (0-9) of 7 (good herbicidal effect)

###

- Tested on: Matricaria inodora
- experiment: Herbicidal activity, preemergence test
- Type: in vivo
- condition: pre; sprayed onto soil, 800 g of active material per hectare; evaluated 3 weeks after treatment
readout: MATIN control rating (0-9)

{"chem_smiles": "C[C@H](NC(=O)c1nnc(N(C)C)o1)c1ccccc1", "readout": "MATIN control rating (0-9)", "readout_value": "0 (no effect)"}
{"chem_smiles": "C[C@H](NC(=O)c1nnc(-c2ccccc2Cl)o1)c1ccccc1", "readout": "MATIN control rating (0-9)", "readout_value": "6 (herbicidal effect)"}
{"chem_smiles": "C[C@H](NC(=O)c1nnc(-c2ccc(C(C)(C)C)cc2)o1)c1ccccc1", "readout": "MATIN control rating (0-9)", "readout_value": "9 (complete kill)"}
{"chem_smiles": "C[C@H](NC(=O)c1nnc(-c2ccc(Cl)cc2)o1)c1ccccc1", "readout": "MATIN control rating (0-9)", "readout_value": "7 (good herbicidal effect)"}
{"chem_smiles": "C[C@H](NC(=O)c1nnc(-c2ccc(Cl)c(Cl)c2)o1)c1ccccc1", "readout": "MATIN control rating (0-9)", "readout_value": "0 (no effect)"}
{"chem_smiles": "O=C(NCc1ccccc1)c1nnc(-c2ccc(F)cc2)o1", "readout": "MATIN control rating (0-9)", "readout_value": "0 (no effect)"}
{"chem_smiles": "C[C@H](NC(=O)c1nnc(-c2ccc(C(F)(F)F)cc2)o1)c1ccccc1", "readout": "MATIN control rating (0-9)", "readout_value": "8 (approaching complete kill)"}
{"chem_smiles": "C[C@H](NC(=O)c1nnc(-c2ccc(Cl)cc2Cl)o1)c1ccccc1", "readout": "MATIN control rating (0-9)", "readout_value": "0 (no effect)"}

Would you mind listing MATIN control rating (0-9) for each of the following molecules?
1. O=C(NCc1cccs1)c1nnc(-c2ccc(F)cc2)o1
2. C[C@H](NC(=O)c1nnc(-c2cc(Cl)cc(Cl)c2)o1)c1ccccc1
3. C[C@H](NC(=O)c1nnc(-c2c(Cl)cccc2Cl)o1)c1ccccc1
4. C[C@H](NC(=O)c1nnc(-c2ccccc2F)o1)c1ccccc1
5. C[C@H](NC(=O)c1nnc(C=Cc2ccccc2)o1)c1ccccc1
6. O=C(NCc1cccs1)c1nnc(-c2ccccc2F)o1
7. C[C@H](NC(=O)c1nnc(-c2ccc(F)cc2)o1)c1ccccc1
8. C[C@H](NC(=O)c1nnc(-c2c(F)cccc2F)o1)c1ccccc1

output:
1: 5 (definite injury); 2: 0 (no effect); 3: 0 (no effect); 4: 8 (approaching complete kill); 5: 0 (no effect); 6: 2 (slight effect); 7: 9 (complete kill); 8: 9 (complete kill)

Would you mind listing MATIN control rating (0-9) for each of the following molecules?
1. C[C@H](NC(=O)c1nnc(-c2ccc(F)cc2F)o1)c1ccccc1
2. COc1ccc(-c2nnc(C(=O)N[C@@H](C)c3ccccc3)o2)cc1

output:
["9 (complete kill)", "7 (good herbicidal effect)"]
